test: yeast transport mutant growth inhibition pilot in 384-well plates, post-Golgi transport modulator project (AID 636); conditions: absorbance 615 nm, about 18 h, stronger effect = higher value; note: test concentration not given here
Entries and their inhibition values follow.
Note: unit % is implicit; provide only the numeric part.

Field: example entries. Status: answers known.
molecule | assayMetric | observedValue
COC(=O)Cn1c(=NC(=O)CSCC(=O)Nc2cc(C)on2)sc2ccccc21 | inhibition | -5.07
CCN(CC)C(=O)COc1ccc2oc(C)c(C(=O)OC(C)C)c2c1 | inhibition | -1.69

Query :: # return recorded inhibition for entry COc1ccc(C2CC(c3ccc(Cl)cc3Cl)Nc3nc(N)nn32)cc1 (stereo unspecified)
Result :: -1.67

Query :: # return recorded inhibition for entry CC(=O)NCc1nc2ccccc2n1C(C)C
Result :: -4.93

Query :: # return recorded inhibition for entry CC(C)C(CO)NC(=O)CC(=O)NC(CO)C(C)C (stereo unspecified)
Result :: -4.8

Query :: # return recorded inhibition for entry Cc1ccc(-n2c3c(cc(C(=O)NCCCN4CCOCC4)c2=O)C(=O)CC(C)(C)C3)cc1
Result :: 0.53

Sourced from PubChem BioAssay
